Source: patent US20240301023A1

Listed here: items and their measured Activity (EC50, nM), cAMP assay.
molecular target: Mu opioid receptor (MOR); test: cell-based or functional assay
Sequence (P35372 whole entry): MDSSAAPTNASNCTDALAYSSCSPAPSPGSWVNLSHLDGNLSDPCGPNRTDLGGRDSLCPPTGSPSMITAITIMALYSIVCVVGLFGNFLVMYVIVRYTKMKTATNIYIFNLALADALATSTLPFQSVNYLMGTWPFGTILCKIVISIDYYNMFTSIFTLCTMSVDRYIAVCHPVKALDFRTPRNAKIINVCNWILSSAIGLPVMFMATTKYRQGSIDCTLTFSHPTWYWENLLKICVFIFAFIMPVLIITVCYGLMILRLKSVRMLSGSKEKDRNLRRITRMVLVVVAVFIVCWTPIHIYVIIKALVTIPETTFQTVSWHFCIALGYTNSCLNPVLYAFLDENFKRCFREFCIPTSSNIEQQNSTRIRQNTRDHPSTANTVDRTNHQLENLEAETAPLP
Square brackets hold non-standard residues; d marks the D form. Ends that are not written are not given here. Phe(4-NO2) = N[C@@H](Cc1ccc([N+](=O)[O-])cc1)C(=O)O; Phe(4-Cl) = N[C@@H](Cc1ccc(Cl)cc1)C(=O)O; Phe(4-F) = N[C@@H](Cc1ccc(F)cc1)C(=O)O; Api = NC1(C(=O)O)CCNCC1; NMA = N-methylarginine; Sar = CNCC(=O)O

Consider the following illustrative entries.
H-Y[Sar][Phe(4-F)]LR[dR]-NH2 [SEQ ID NO. 12: NH2-Tyr-Sar-(4-F)Phe-Leu-Arg-DArg-NH2]; 3450 nM
H-Y[Sar][Phe(4-Cl)]LR[dR]I[dR]-NH2 [SEQ ID NO. 25: NH2-Tyr-Sar-(4-Cl)Phe-Leu-Arg-DArg-Ile-DArg-NH2]; 1610 nM
H-Y[Sar][Phe(4-NO2)]LRX-NH2 (not fully specified (residue 6); printed as NH2-Tyr-Sar-(4-NO2)Phe-Leu-Arg-NMA-NH2) [SEQ ID NO. 18: NH2-Tyr-Sar-(4-NO2)Phe-Leu-Arg-NMA-NH2]; > 10000 nM
H-Y[Sar]FLRR-NH2 [SEQ ID NO. 2: NH2-Tyr-Sar-Phe-Leu-Arg-Arg-NH2]; 6700 nM
H-Y[Sar][Phe(4-F)]L[NMA][dR]-NH2 [SEQ ID NO. 14: NH2-Tyr-Sar-(4-F)Phe-Leu-NMA-DArg-NH2]; 4000 nM
[dF][dF][dL][dK][Api]-OH (N-terminus assumed; SMILES CC(C)C[C@@H](NC(=O)[C@@H](Cc1ccccc1)NC(=O)[C@H](N)Cc1ccccc1)C(=O)N[C@H](CCCCN)C(=O)NC1(C(=O)O)CCNCC1) [CR845 (SEQ ID NO. 35: DPhe-DPhe-DLeu-DLys-Cap-CO2H)]; > 10000 nM
H-Y[Sar][Phe(4-Cl)]LR[dR]IR-NH2 [SEQ ID NO. 20: NH2-Tyr-Sar-(4-Cl)Phe-Leu-Arg-DArg-Ile-Arg-NH2]; > 10000 nM
H-Y[Sar][Phe(4-Cl)]LR[dR]-{C7H14‑CONH2} [SEQ ID NO. 24: NH2-Tyr-Sar-(4-Cl)Phe-Leu-Arg-DArg-C7H14-CONH2]; > 10000 nM
H-Y[Sar][Phe(4-NO2)]L[NMA][dR]-NH2 [SEQ ID NO. 15: NH2-Tyr-Sar-(4-NO2)Phe-Leu-NMA-DArg-NH2]; > 10000 nM
H-Y[Sar][Phe(4-NO2)]LR[dR]-NH2 [SEQ ID NO. 4: NH2-Tyr-Sar-(4-NO2)Phe-Leu-Arg-DArg-NH2]; > 10000 nM

State its Activity (EC50, nM), cAMP assay: H-Y[Sar][Phe(4-Cl)]LX[dR]-NH2 (not fully specified (residue 5); printed as NH2-Tyr-Sar-(4-Cl)Phe-Leu-NMA-DArg-NH2) [SEQ ID NO. 13: NH2-Tyr-Sar-(4-Cl)Phe-Leu-NMA-DArg-NH2]
> 10000 nM

State its Activity (EC50, nM), cAMP assay: H-Y[Sar][Phe(4-Cl)]LR[dR]-NH2 [SEQ ID NO. 11: NH2-Tyr-Sar-(4-Cl)Phe-Leu-Arg-DArg-NH2]
> 10000 nM
